measured.target: IFN-gamma (Homo sapiens, UniProt P01579 P01579:24-161)
Sequence (P01579 24-161, one chain of several): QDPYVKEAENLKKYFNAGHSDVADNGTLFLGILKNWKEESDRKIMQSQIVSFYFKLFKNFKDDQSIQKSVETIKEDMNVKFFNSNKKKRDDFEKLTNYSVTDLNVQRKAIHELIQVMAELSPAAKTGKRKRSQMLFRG
test.details: filter; 1x DPBS, 0.1 mg/ml BSA; Table 21 gives 167.31
test.conditions: tags: R&D Systems, Minneapolis; chain copies: 2; label: 5'-32P
reported.metric: pKd
pKd here: minus log base 10 of the concentration, concentration in moles per litre.

Entry under review: ARC789 (AMX(192)_A5) (mixed, dRmY: deoxy A,G; 2'-OMe C,U (cDNA printed, T=U)) DNA: GGGAGAGGAGAGAACGTTCTACGTTTGCGGTCAGGATGGGGTGGTGGGAGGTCGATCGATCGATCATCGATG . Reported pKd? 6.82
